Values compiled from PubChem BioAssay AID1508601.

# assay_method_text: p53 stabilisation in HPV-positive human cells, imaging, p53-positive nuclei imaging, 24 h, 48 h (AID 1508601)
# measurement_setup: 24/48 h, measured here: cell number at 24 h, Library stock concentration: 41 uM
Out of some 5,700 compounds screened, about 85 (1%) were called active. This is one part of a sample in which actives are shown more often than they occur.
This section presents compounds with their documented nuclei count, normalised values.
Use % as the unit, but write only the number.

Q) Field request: nuclei count, normalised | item: OC1CN2CCC(O)[C@H]2C(O)C1O (some centres undefined)
A) 109

Q) Please answer likewise for CN1C(=O)[C@@]23C[C@]4([C@]56C[C@@]78SS[C@@](CO)(C(=O)N7[C@@H]5Nc5ccccc56)N(C)C8=O)c5ccccc5N[C@H]4N2C(=O)[C@]1(CO)SS3
A) 67.2

Q) Another compound to look at: CC1=CC(=O)c2c(O)cccc2C1=O
A) 118

Q) Item: CC[n+]1c(-c2ccccc2)c2cc(N)ccc2c2ccc(N)cc21
A) 111

* * *

# assay_method_text: p53 stabilisation in HPV-positive human cells, imaging, p53-positive nuclei imaging, 24 h, 48 h (AID 1508601)
# measurement_setup: 24/48 h, measured here: cell number at 48 h, Library stock concentration: 10 mM
In all, about 5,700 compounds went through this assay and about 85 (1%) were called active. Shown is part of a subset that was picked to be rich in actives.
assay_readout: nuclei count, normalised

Some entries whose results are on file:
CC1OC(O[C@H]2CC[C@@]3(C)[C@@H](CC[C@@H]4[C@H]3CC[C@]3(C)[C@@H](C5=CC(=O)OC5)CC[C@]43O)C2)CC(O)C1O (stereo partly drawn) : 29%
CC1=C(O)C(=O)C=C2C1=CC=C1[C@@]2(C)CCC2(C)C3C[C@](C)(C(=O)O)CC[C@]3(C)CC[C@]12C (stereo partly drawn) : 28.8%

Now consider the entry below.
Q) Please look up its nuclei count, normalised: C[C@]12C=CC(=O)C=C1CC[C@@H]1[C@@H]2CC[C@]2(C)OC(=O)CC[C@@H]12
A) 97.4%

* * *

# assay_method_text: p53 stabilisation in HPV-positive human cells, imaging, p53-positive nuclei imaging, 24 h, 48 h (AID 1508601)
# measurement_setup: 24/48 h, measured here: cell number at 48 h, concentration not given here
Out of some 5,700 compounds screened, about 85 (1%) were called active. The entries come from a sample that favours actives as a whole.
assay_readout: nuclei count, normalised (%)
Write the number in % without appending the unit.

Take a look at these entries with their results.
O=C1c2ccccc2C(=O)c2ccccc21 : 96.8
CCCCC/C=C\C/C=C\C/C=C\C/C=C\CCCC(=O)NCCF : 90.8
C=C(C)[C@@H]1CCC(C)=C[C@H]1c1c(OC)cc(CCCCC)cc1OC : 109
CCCCC/C=C\C/C=C\C/C=C\C/C=C\CCCC(=O)NC : 99.6
CC[C@@]1(O)C[C@H](O[C@H]2C[C@H](N(C)C)[C@H](O)[C@H](C)O2)c2c(cc3c(c2O)C(=O)c2c(O)ccc(O)c2C3=O)[C@H]1C(=O)OC : 15.5
CCCCC/C=C\C/C=C\C/C=C\C/C=C\CCCC(=O)Nc1cccc([N+](=O)[O-])c1 : 112

Q) Need nuclei count, normalised of CCCCCCCCCCCCCCCCOC[C@H](COP(=O)([O-])OCC[N+](C)(C)C)OC(C)=O , thanks.
A) 107

Q) Param item: CC[C@@]1(O)C[C@H](O[C@H]2C[C@H](N(C)C)[C@H](O)[C@H](C)O2)c2c(cc3c(c2O)C(=O)c2c(O)cccc2C3=O)[C@H]1C(=O)OC
A) 38.4

Q) Would you mind doing CN1CCC(N(C)CCC2CCOCC2)CC1 as well?
A) 105

* * *

# test_system: Cellular tumor antigen p53 (Homo sapiens) (UniProt P04637)
# Sequence (P04637 whole entry, looked up): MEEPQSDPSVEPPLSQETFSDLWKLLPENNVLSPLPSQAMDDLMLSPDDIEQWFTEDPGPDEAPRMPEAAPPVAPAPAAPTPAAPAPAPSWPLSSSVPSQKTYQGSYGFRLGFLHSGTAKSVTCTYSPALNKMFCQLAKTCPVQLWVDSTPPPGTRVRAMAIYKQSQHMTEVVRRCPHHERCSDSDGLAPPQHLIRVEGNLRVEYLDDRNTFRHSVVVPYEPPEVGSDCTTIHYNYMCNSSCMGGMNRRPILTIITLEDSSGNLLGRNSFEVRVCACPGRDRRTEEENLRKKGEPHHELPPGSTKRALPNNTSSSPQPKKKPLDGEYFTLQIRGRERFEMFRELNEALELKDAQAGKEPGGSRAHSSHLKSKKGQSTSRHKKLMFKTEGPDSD
# assay_method_text: p53 stabilisation in HPV-positive human cells, imaging, p53-positive nuclei imaging, 24 h, 48 h (AID 1508601)
# measurement_setup: 24/48 h, measured here: p53 positive nuclei at 24 h, Library stock concentration: 4.6 uM, stronger effect = higher value
In all, about 5,700 compounds went through this assay and about 85 (1%) were called active. Many of the other results were omitted from the sample, so actives are more common in it than they were.
assay_readout: p53-positive nuclei, normalised (%)
Hi! Could you send only the number? It should be in %, unit omitted.

Consider the worked cases shown below.
CC1OC(O[C@H]2CC[C@@]3(C)[C@@H](CC[C@@H]4[C@H]3CC[C@]3(C)[C@@H](C5=CC(=O)OC5)CC[C@]43O)C2)CC(O)C1O (some centres undefined) : 2.38
CC[n+]1c(-c2ccccc2)c2cc(N)ccc2c2ccc(N)cc21 : -0.00293
NOCCC(N)C(=O)O (centres undefined) : -0.00649

Next:
Q) Could you share which p53-positive nuclei, normalised value was measured for CC1=CC(=O)c2c(O)cccc2C1=O ?
A) -0.0368

* * *

# test_system: Cellular tumor antigen p53 (Homo sapiens)
# assay_method_text: p53 stabilisation in HPV-positive human cells, imaging, p53-positive nuclei imaging, 24 h, 48 h (AID 1508601)
# measurement_setup: 24/48 h, measured here: p53 positive nuclei at 24 h, Library stock concentration: 500 nM, stronger effect = higher value
About 85 (1%) of roughly 5,700 compounds were called active. For the sample, actives were picked, then their nearest neighbours and some compounds at random.
Below is a list of entries, each paired with its recorded p53-positive nuclei, normalised value.
Report only the number, with the unit % understood.

CC1=CC(=O)c2c(O)cccc2C1=O : 0.0252
CN1C(=O)[C@@]23C[C@]4([C@]56C[C@@]78SS[C@@](CO)(C(=O)N7[C@@H]5Nc5ccccc56)N(C)C8=O)c5ccccc5N[C@H]4N2C(=O)[C@]1(CO)SS3 : -0.114
NOCCC(N)C(=O)O (stereo unspecified) : 0.111

Q) Record request: p53-positive nuclei, normalised value, item CC[n+]1c(-c2ccccc2)c2cc(N)ccc2c2ccc(N)cc21
A) 0.0668

Q) And the next one, CC1OC(O[C@H]2CC[C@@]3(C)[C@@H](CC[C@@H]4[C@H]3CC[C@]3(C)[C@@H](C5=CC(=O)OC5)CC[C@]43O)C2)CC(O)C1O (stereo partly specified) ?
A) 0.0832

Q) Here is the next molecule: OC1CN2CCC(O)[C@H]2C(O)C1O (stereo partly specified)
A) -0.068

* * *

# test_system: Cellular tumor antigen p53 (Homo sapiens) (UniProt P04637)
# assay_method_text: p53 stabilisation in HPV-positive human cells, imaging, p53-positive nuclei imaging, 24 h, 48 h (AID 1508601)
# measurement_setup: 24/48 h, measured here: p53 positive nuclei at 24 h, Library stock concentration: 123 uM, stronger effect = higher value
In all, about 5,700 compounds went through this assay and about 85 (1%) were called active. The full list was thinned out, with actives kept by preference.
assay_readout: p53-positive nuclei, normalised (%)
Numeric only. Scale: %

CC1=CC(=O)c2c(O)cccc2C1=O : 0.171
CC1OC(O[C@H]2CC[C@@]3(C)[C@@H](CC[C@@H]4[C@H]3CC[C@]3(C)[C@@H](C5=CC(=O)OC5)CC[C@]43O)C2)CC(O)C1O (stereo not given in full) : 0.939
NOCCC(N)C(=O)O (stereo not given) : -0.0424

Q) Fill in: p53-positive nuclei, normalised of CN1C(=O)[C@@]23C[C@]4([C@]56C[C@@]78SS[C@@](CO)(C(=O)N7[C@@H]5Nc5ccccc56)N(C)C8=O)c5ccccc5N[C@H]4N2C(=O)[C@]1(CO)SS3 is ___
A) 116

Q) CC[n+]1c(-c2ccccc2)c2cc(N)ccc2c2ccc(N)cc21 , same question.
A) 1.53

* * *

# test_system: Cellular tumor antigen p53 (Homo sapiens)
# assay_method_text: p53 stabilisation in HPV-positive human cells, imaging, p53-positive nuclei imaging, 24 h, 48 h (AID 1508601)
# measurement_setup: 24/48 h, measured here: p53 positive nuclei at 24 h, Library stock concentration: 10 mM, stronger effect = higher value
Hit rate of the full screen: of about 5,700 compounds, about 85 (1%) were called active. Only a selection was taken, and actives are over-represented in it overall.
Items are presented alongside their recorded p53-positive nuclei, normalised.
Report as a plain number; the unit % is understood.

CC1=C(O)C(=O)C=C2C1=CC=C1[C@@]2(C)CC[C@@]2(C)C3C[C@](C)(C(=O)O)CC[C@]3(C)CC[C@]12C (stereo not given in full) : 29.3

Q) Requested read-out p53-positive nuclei, normalised, target or system Cellular tumor antigen p53 (Homo sapiens), entry O=C1C(=O)c2cccc3cccc1c23
A) 0.327

Q) Now give it for NOCCC(N)C(=O)O (stereo not given) too.
A) -0.121
